- PROCEDURE DETAILS: yeast display, Sf9 membrane polyspecificity reagent, FACS + sequencing; frameworks hold sequencing errors
OBSERVABLE: polyreactivity (PSR sort gate)

The following sequences have reported results that may help.
INSERT INTO results (input_sequence, observable, result) VALUES
  ('QVQLVESGGGLVQAGGSLRLSCAASGSIIDWNAMGWYRQAPGKERELVAVISWGGGSTYADSVKGRFTISRDNAKNTVYLQMNSLKPEDTAVYNCNKEPIYYPVSDYDYWGQGTQVTVSS', 'polyreactivity (PSR sort gate)', 'low polyreactivity'),
  ('QVQLVESGGGLVQAGGSLRLSCAASGSIFLYNTMGWYRQAPGKERELVAAITSGGNTNYADSVKGRFTISRDNAKNTVYLQMHSLKPEDTAVYYCNVDLKAWLPDGGSVDYWGQGTQVTVSS', 'polyreactivity (PSR sort gate)', 'low polyreactivity'),
  ('QVQLVESGGGLVQAGGSLRLSCAASGRTFTSYAMGWYRQAPGKERELVAAISGSGSRTYYADSVKGRFTISRDNAKNTVYLQMNSLKPEDTAVYYCAVSYTTYYHRYYYWGQGTQVTVSS', 'polyreactivity (PSR sort gate)', 'high polyreactivity'),
  ('QVQLVESGGGLVQAGGSLRLSCAASGTTFDVYAMGWSRQAPGKERELVAAITSGGTTNYADSVKGRFTISRDNAKNPVFFQMNSLKPEDTAVYYCAKDSRNVYWDYGYWGQGTQVSVSS', 'polyreactivity (PSR sort gate)', 'low polyreactivity');

Any idea what polyreactivity (PSR sort gate) was measured for QVQLVESGGGLVQARGSLRLSCAASGRTVTYYAMGWYRQAPGKERELVAAISSGDSTYYADSVKGRFTISRDNAKNTVYLQMNSLKPEDTAVYYCAVDHVSRYYGYPEITYDYWGQGTQVSVSS ?
low polyreactivity

Recorded polyreactivity (PSR sort gate) for QVQLVESGGGLVQAGGSLRLSCAASGSIFGRNAMGWYRQAPGKEREFVATITSRGGRTYYADSVKGRFTISRDNAKNTVYLQMNSLKPEYTAVYYCAADTYISTLKKYRLGDYWGQGTQVTVSS , please?
low polyreactivity

Value lookup for polyreactivity (PSR sort gate); key = QVQLVESGRGLVQAGGSLRLSCAASGSIFSYYAMGWYIQAPGKERELVAAITVRGGSTYYADSVKGRFTISRDNAKNTVYLQMNSLKPEDTAVYYCAAVPGYTHLWGGPFDYWGQGTQVTVSS
low polyreactivity

What value of polyreactivity (PSR sort gate) has been reported for the following sequence? QVQLVESGGGLVQAGGSLRLSCAASGSTFDSNTMRWYRQAPGKETELVAAITVSGGSTHYADSVKGRFTISRDNAKNTVYLQMNSLKPEDTAVYYCNRRSYGYGAFSGYDYWGQGTQVTVSS
low polyreactivity

Returns the measured polyreactivity (PSR sort gate) for the input sequence. Input: QVQLVESGGGLVQAGGSLRLSCAASGSTFRAYAMGWYRQAPGTEWELVAAISAGGSTNYADSVKGRFTISRDHAKNTVSLQMNCLKRDDTAVYYCAKGWYYVSPYGYRKRVYYWGQGTQVTVSS
high polyreactivity

Could you share which polyreactivity (PSR sort gate) value was measured for QVQLVESGGGLGQAGGSLRLSCAASGRIFYSYAMGWSRQAPGKESELVAAITESGGSTNYADSVKGRFTISRDNAKNTVYLQMNSLNPEDTAVFYCNARYKLTFNLYNYWGQGTQVTVSS ?
low polyreactivity

Given the entry QVQLVESGGGLVQAGGSLRLSCAASGYIFGRNAMGWYRQAPGKEREFVAAISYSGSSTYYADSVKGRFTISRDNAKNTVYLQMNSLKPEDTAVYYCNAVYYRSRFGTSIRYDYWGQGTQVTVSS , report its measured polyreactivity (PSR sort gate).
high polyreactivity
